Every entry's value here was drawn from the supplement of paper PMC11061612.

System: HCC2157 (Breast Carcinoma)
Assay: combination Emax (second highest fraction inhibited in the dose matrix, 72 h); higher = more inhibition; extreme values may be limits of the assay
Recorded measurements of combination Emax, one per entry
The response must contain the number and no unit.

For orientation, consider the following solved cases.
// query Which measured combination Emax value corresponds to Cn1cnc2c(F)c(Nc3ccc(Br)cc3Cl)c(C(=O)NOCCO)cc21 [Selumetinib] + CCN(CCO)CCCOc1ccc2c(Nc3cc(CC(=O)Nc4cccc(F)c4)[nH]n3)ncnc2c1 [AZD2811] (first compound max 10 µM, 7x7, partner max 1 µM) ?
// result 0.628

// query Which measured combination Emax value corresponds to CC(=O)c1c(C)c2cnc(Nc3ccc(N4CCNCC4)cn3)nc2n(C2CCCC2)c1=O [Palbociclib] + Cn1cnc2c(F)c(Nc3ccc(Br)cc3Cl)c(C(=O)NOCCO)cc21 [Selumetinib] (first compound max 10 µM, 7x7, partner max 10 µM) ?
// result 0.394

Please look at the following compound next.
// query Which measured combination Emax value corresponds to COc1nnc2ccc(N3CCC(c4ccc(OCCN5CCN(C)C(=O)[C@H]5C)cc4)CC3)nn12 [AZD5153] + CCN(CCO)CCCOc1ccc2c(Nc3cc(CC(=O)Nc4cccc(F)c4)[nH]n3)ncnc2c1 [AZD2811] (first compound max 1 µM, 7x7, partner max 1 µM) ?
// result 1

---

Recorded measurements of Bliss excess, one per entry
Test system: IHH-4 (Thyroid Gland Carcinoma);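 further: after 72 h of two-drug dosing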
Experiment: Bliss excess, mean over the matrix (fraction); higher = more synergy

For orientation, consider the following solved cases.
// query Which measured Bliss excess value corresponds to Cc1c2c(nn1C)CSCc1cc(n(C)n1)CSc1cc(c3ccccc3c1)OCCCc1c(C(=O)O)n(C)c3c-2c(Cl)ccc13 [AZD5991] + C[C@@H](Nc1cc(F)cc(F)c1)c1cc(C(=O)N(C)C)cc2c(=O)cc(N3CCOCC3)oc12 [AZD8186] (first compound max 1 µM, 7x7, partner max 3 µM) ?
// result 0.0184

// query Which measured Bliss excess value corresponds to O=C(c1cc(Cc2n[nH]c(=O)c3ccccc23)ccc1F)N1CCN(C(=O)C2CC2)CC1 [Olaparib] + Cc1c2c(nn1C)CSCc1cc(n(C)n1)CSc1cc(c3ccccc3c1)OCCCc1c(C(=O)O)n(C)c3c-2c(Cl)ccc13 [AZD5991] (first compound max 10 µM, 7x7, partner max 1 µM) ?
// result -0.0093

// query Which measured Bliss excess value corresponds to CCN(CCO)CCCOc1ccc2c(Nc3cc(CC(=O)Nc4cccc(F)c4)[nH]n3)ncnc2c1 [AZD2811] + C[C@@H]1COCCN1C2=NC(=NC(=C2)C3(CC3)[S@](=N)(=O)C)C4=C5C=CNC5=NC=C4 [AZD6738] (first compound max 1 µM, 7x7, partner max 10 µM) ?
// result -0.0583

Others:
// query Which measured Bliss excess value corresponds to CN(C)CCCOc1ccc(-c2ccc3ncc4c(c3c2)n(C2CCOCC2)c(=O)n4C)cn1 [AZD0156] + C=CCn1c(=O)c2cnc(Nc3ccc(N4CCN(C)CC4)cc3)nc2n1-c1cccc(C(C)(C)O)n1 [AZD1775] (first compound max 1 µM, partner max 1 µM) ?
// result 0.0247

---

Recorded measurements of combination Emax, one per entry
Test system: NCI-H2595 (Mesothelioma)
Assay: combination Emax (second highest fraction inhibited in the dose matrix, 72 h); higher = more inhibition; extreme values may be limits of the assay

// query Could you share what combination Emax was measured for CC1(C)CCC(CN2CCN(c3ccc(C(=O)NS(=O)(=O)c4ccc(NCC5CCOCC5)c([N+](=O)[O-])c4)c(Oc4cnc5[nH]ccc5c4)c3)CC2)=C(c2ccc(Cl)cc2)C1 [Venetoclax] + C1CN(CCC1(C(=O)N[C@@H](CCO)C2=CC=C(C=C2)Cl)N)C3=NC=NC4=C3C=CN4 [Capivasertib] (first compound max 1 µM, 7x7, partner max 3 µM) , tested on NCI-H2595 (Mesothelioma)?
// result 0.235

// query Could you share what combination Emax was measured for CCc1c2c(nc3ccc(O)cc13)-c1cc3c(c(=O)n1C2)COC(=O)[C@]3(O)CC [SN-38] + CN(C)CCCOc1ccc(-c2ccc3ncc4c(c3c2)n(C2CCOCC2)c(=O)n4C)cn1 [AZD0156] (first compound max 0.3 µM, 7x7, partner max 1 µM) , tested on NCI-H2595 (Mesothelioma)?
// result 0.176
